Measured values drawn from the supplement of paper PMC8728848 for this set.

Molecular target: Fuc(a1-2)[GalNAc(a1-3)]Gal(b1-3)GalNAc(b1-3)Gal(a1-4)Gal(b1-4)Glc
Assay: glycan array binding signal (z-score within array); higher = stronger binding
Details: glycan notation: IUPAC condensed, linker removed
About 410 targets per protein were measured; listed, in parts, are those with the strongest signals and a random draw of the rest.
Can you tell me glycan array binding signal (z-score) for the items I'm about to list?
Field format: numeric only.

What glycan array binding signal (z-score) value was documented for this binder, HFR-3 (Triticum aestivum) (protein) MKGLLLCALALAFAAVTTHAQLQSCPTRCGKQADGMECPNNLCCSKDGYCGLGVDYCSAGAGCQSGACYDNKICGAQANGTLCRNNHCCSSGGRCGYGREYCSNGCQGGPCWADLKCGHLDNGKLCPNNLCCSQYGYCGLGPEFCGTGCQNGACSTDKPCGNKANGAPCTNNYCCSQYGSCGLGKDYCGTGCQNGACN ? -1.32

What glycan array binding signal (z-score) value was documented for this binder, SBD-G4S3-Fc (protein) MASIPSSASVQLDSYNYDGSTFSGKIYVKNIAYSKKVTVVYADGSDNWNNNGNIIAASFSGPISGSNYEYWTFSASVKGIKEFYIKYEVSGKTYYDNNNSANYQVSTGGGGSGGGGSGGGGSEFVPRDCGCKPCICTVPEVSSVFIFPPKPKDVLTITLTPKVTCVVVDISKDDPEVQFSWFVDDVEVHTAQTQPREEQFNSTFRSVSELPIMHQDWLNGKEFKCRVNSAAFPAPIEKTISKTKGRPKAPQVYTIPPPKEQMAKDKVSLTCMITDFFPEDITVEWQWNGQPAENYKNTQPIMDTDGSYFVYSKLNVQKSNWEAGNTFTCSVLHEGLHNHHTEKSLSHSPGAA ? 0.07
